test: EP055 plasma and semen levels in rhesus males after i.v. infusion; format: in vivo, Macaca mulatta; conditions: rhesus monkey, semen, iv, low dose 75–80 mg/kg, 78 hr
assay.metric: concentration at 78 h

input: Name the recorded concentration at 78 h for COC(=O)NNc1nc(Nc2ccc(NC(C)=O)c(O)c2)nc(SCC(=O)O)n1 .
output: 61 µM

* * *

Experiment: EP055 plasma and semen levels in rhesus males after i.v. infusion
Format: in vivo, Macaca mulatta
Settings: rhesus, 6 and 30 hours after high-dose infusion; read-out: semen levels
Description: Semen was collected by direct penile stimulation with a P-T Electronics Model 303 PTE 110 Volt AC stimulator equipped with electrocardiogram pad electrodes (10–35 V, 20 ms duration, 18 pulses/sec) as previously described. […] Prior to infusion of EP055, each male was sedated with ketamine by the surgical staff at ONPRC and transported to the operating room. […] Invasive blood pressure, heart rate, SpO2, and respirations were monitored by the surgical staff throughout the procedure. […]
assay.metric: concentration

input: What does the record list as concentration for COC(=O)NNc1nc(Nc2ccc(NC(C)=O)c(O)c2)nc(SCC(=O)O)n1 ?
output: > 300 µM

* * *

assay: EP054/EP055 plasma half-life in cynomolgus male macaques; set-up: species or system Macaca fascicularis; settings: cynomolgus monkey, in vivo, iv, 1 mg/kg, summary of both studies
assay.metric: half-life

input: Please give the measured half-life for this compound: COC(=O)NNc1nc(Nc2ccc(NC(C)=O)c(O)c2)nc(SCC(=O)O)n1
output: 10 to 12 min

* * *

assay: EP055 testis, epididymis and plasma levels in cynomolgus males after i.v. infusion; type: in vivo, Macaca fascicularis; conditions: cynomolgus monkey, iv, 63.25 mg/kg i.v., extrapolated from 2 hr and 6 hr points and calculated initial plasma concentration, read-out: estimated plasma half-life (t1/2) in target tissue experiment
assay.metric: half-life (min)
Provide only the numeric value, understood in min.

input: So what's the measured half-life for this one? COC(=O)NNc1nc(Nc2ccc(NC(C)=O)c(O)c2)nc(SCC(=O)O)n1
output: 11.9

* * *

assay: EP055 plasma and semen levels in rhesus males after i.v. infusion; format: in vivo, Macaca mulatta; details: rhesus monkey, semen/plasma, iv; low dose 75–80 mg/kg, 6 hr; read-out: Ratio of S/P
assay.metric: Kp at 6 h
Give the figure by itself; no unit, no explanation.

input: What measured Kp at 6 h goes with COC(=O)NNc1nc(Nc2ccc(NC(C)=O)c(O)c2)nc(SCC(=O)O)n1 ?
output: 473

* * *

assay: EP055 plasma and semen levels in rhesus males after i.v. infusion; type: in vivo, Macaca mulatta; conditions: rhesus monkey, plasma, iv, low dose 75–80 mg/kg, 6 hr after infusion, mean ± SEM 4 animals; read-out: Plasma levels
assay.metric: concentration at 6 h (nM)
Respond with the bare value in nM.

input: Which concentration at 6 h value belongs to COC(=O)NNc1nc(Nc2ccc(NC(C)=O)c(O)c2)nc(SCC(=O)O)n1 ?
output: 620

* * *

assay: EP012 plasma half-life in rats; assay type: in vivo; conditions: rat, iv, preliminary testing, 1 mg/kg i.v. bolus
assay.metric: half-life

input: Fill in: half-life of COC(=O)NNc1nc(Nc2ccc(NC(=O)OC)c(O)c2)nc(SCC(=O)O)n1 [EP012] is ___
output: < 4 min

* * *

assay: EP055 plasma and semen levels in rhesus males after i.v. infusion; assay type: in vivo, Macaca mulatta; conditions: rhesus monkey, semen, iv, high dose 125–130 mg/kg, 30 hr; read-out: Semen Levels
assay.metric: concentration at 30 h (µM)
Express the result in µM but write the number alone.

input: Which concentration at 30 h value belongs to COC(=O)NNc1nc(Nc2ccc(NC(C)=O)c(O)c2)nc(SCC(=O)O)n1 ?
output: 376

* * *

assay: EP055 plasma and semen levels in rhesus males after i.v. infusion; format: in vivo, Macaca mulatta; settings: high dose 125–130 mg/kg, 13–17 days; read-out: Semen Levels
assay.metric: concentration
For clarity, give the value followed by its unit.

input: Please look up its concentration: COC(=O)NNc1nc(Nc2ccc(NC(C)=O)c(O)c2)nc(SCC(=O)O)n1
output: 900 nM

* * *

Experiment: EP055 plasma and semen levels in rhesus males after i.v. infusion
Format: in vivo, Macaca mulatta
Conditions: rhesus monkey, semen, iv, low dose 75–80 mg/kg, 6 hr; read-out: Semen Levels
From the text: Semen was collected by direct penile stimulation with a P-T Electronics Model 303 PTE 110 Volt AC stimulator equipped with electrocardiogram pad electrodes (10–35 V, 20 ms duration, 18 pulses/sec) as previously described. […] Prior to infusion of EP055, each male was sedated with ketamine by the surgical staff at ONPRC and transported to the operating room. […] Invasive blood pressure, heart rate, SpO2, and respirations were monitored by the surgical staff throughout the procedure. […]
assay.metric: concentration at 6 h (µM)
The reply should be a number in µM, with the unit left off.

input: Any idea what concentration at 6 h was measured for COC(=O)NNc1nc(Nc2ccc(NC(C)=O)c(O)c2)nc(SCC(=O)O)n1 [EP055] ?
output: 293

* * *

Observed pIC50, system UniProtKB O95925.
Sequence (O95925 22-133): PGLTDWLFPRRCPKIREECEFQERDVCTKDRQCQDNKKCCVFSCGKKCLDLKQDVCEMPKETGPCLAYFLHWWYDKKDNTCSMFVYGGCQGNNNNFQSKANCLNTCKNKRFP
// pIC50 here means minus log10 of the molar concentration (mol/L)

chemical.structure | test.result
COC(=O)NNc1nc(Nc2ccc(NC(C)=O)c(O)c2)nc(SCC(=O)O)n1 | 2.95

Now take the following compound into account.
input: Would you kindly share the measured pIC50 for COC(=O)NNc1nc(Nc2ccc(NC(=O)OC)c(O)c2)nc(SCC(=O)O)n1 ?
output: 4.26

* * *

assay: EP055 plasma and semen levels in rhesus males after i.v. infusion; assay type: in vivo, Macaca mulatta; conditions: rhesus monkey, plasma, iv, high dose 125–130 mg/kg, 30 hr; read-out: Plasma levels
assay.metric: concentration at 30 h (nM)
Output spec: scalar in nM, unitless text.

input: Name the reported concentration at 30 h value associated with the molecule COC(=O)NNc1nc(Nc2ccc(NC(C)=O)c(O)c2)nc(SCC(=O)O)n1
output: 20
